Assay comment: in vitro
Study conditions: human, liver microsomes
Readings of CLint scaled at 1 h, 10 µM for the listed compounds
// return numeric value only (unit: mL/min/kg, not printed)

Please review the entries below; each comes with its answer.
# Query smiles, Value units, CLint scaled at 1 h, 10 µM
measured = [
    ("Nc1ncc(N2CCN(c3cccc(-c4ccccn4)c3)CC2)c(N)n1", "mL/min/kg", 17.7),
    ("Nc1ncc(N2CCN(c3cccc(-c4ccncc4)c3)CC2)c(N)n1", "mL/min/kg", 18.7),
    ("Nc1ncc(N2CCN(c3cccc(-c4ccccc4)c3)CC2)c(N)n1", "mL/min/kg", 28.4),
    ("Nc1ncc(N2CCN(c3cccc(-c4cnc(C(F)(F)F)nc4)c3)CC2)c(N)n1", "mL/min/kg", 10.5),
]

Consider the additional compound presented here.
Qu. May I ask what CLint scaled at 1 h, 10 µM has been recorded for `Nc1ncc(N2CCN(c3cccc(-c4cnc(C5CC5)nc4)c3)CC2)c(N)n1` ?
Ans. 17.4

----------
Assay comment: brain to blood ratio
Study conditions: female, CD1, mouse, in vivo, 10 mg/kg
Property label: Kp at 0.5 h
The answer should be a number; do not append a unit.

Qu. Name the recorded Kp at 0.5 h for COc1ncc(-c2cccc(N3CCN(c4cnc(N)nc4N)CC3)c2)cn1 [Compound 3] .
Ans. 1.7

----------
Measured logP, listed per entry for reference.
Assay comment: measured LogP octanol/buffer
Format: physicochemical
Study conditions: pH 11
// no unit, no text: just the number

Qu. What does the data say about its logP? Entry: CCc1nc(N)nc(N)c1-c1ccc(Cl)cc1 [Compound 1, Pyrimethamine, reference compound]
Ans. 2.71

Qu. May I ask what logP has been recorded for `Nc1ncc(N2CCN(c3cccc(-c4ccccc4)c3)CC2)c(N)n1` ?
Ans. 3.38

----------
Assay comment: kinetic solubility
Type: physicochemical
Study conditions: pH 7.4, Solubility (kinetic)
Property label: solubility kinetic

Qu. What measured solubility kinetic goes with `Nc1ncc(N2CCN(c3cccc(-c4ccccc4)c3)CC2)c(N)n1` ?
Ans. < 4 µM

----------
Assay comment: mouse liver microsome intrinsic clearance
Type: in vitro ADME
Study conditions: liver microsomes
Property label: CLint scaled at 1 h, 10 µM (mL/min/kg)
Give just the number in mL/min/kg; leave the unit off.

Would you please look over these solved cases?
# Query smiles, Meas value
measured = [
    ("Cc1ncc(-c2cccc(N3CCN(c4cnc(N)nc4N)CC3)c2)cn1", 431),
    ("COc1ncc(-c2cccc(N3CCN(c4cnc(N)nc4N)CC3)c2)cn1", 56.3),
]

Alright, here's another compound for you.
Qu. CLint scaled at 1 h, 10 µM for `Nc1ncc(N2CCN(c3cccc(-c4cncnc4)c3)CC2)c(N)n1` ?
Ans. 2700

----------
Study target: hERG (Homo sapiens, UniProt Q12809)
Sequence (Q12809 whole entry): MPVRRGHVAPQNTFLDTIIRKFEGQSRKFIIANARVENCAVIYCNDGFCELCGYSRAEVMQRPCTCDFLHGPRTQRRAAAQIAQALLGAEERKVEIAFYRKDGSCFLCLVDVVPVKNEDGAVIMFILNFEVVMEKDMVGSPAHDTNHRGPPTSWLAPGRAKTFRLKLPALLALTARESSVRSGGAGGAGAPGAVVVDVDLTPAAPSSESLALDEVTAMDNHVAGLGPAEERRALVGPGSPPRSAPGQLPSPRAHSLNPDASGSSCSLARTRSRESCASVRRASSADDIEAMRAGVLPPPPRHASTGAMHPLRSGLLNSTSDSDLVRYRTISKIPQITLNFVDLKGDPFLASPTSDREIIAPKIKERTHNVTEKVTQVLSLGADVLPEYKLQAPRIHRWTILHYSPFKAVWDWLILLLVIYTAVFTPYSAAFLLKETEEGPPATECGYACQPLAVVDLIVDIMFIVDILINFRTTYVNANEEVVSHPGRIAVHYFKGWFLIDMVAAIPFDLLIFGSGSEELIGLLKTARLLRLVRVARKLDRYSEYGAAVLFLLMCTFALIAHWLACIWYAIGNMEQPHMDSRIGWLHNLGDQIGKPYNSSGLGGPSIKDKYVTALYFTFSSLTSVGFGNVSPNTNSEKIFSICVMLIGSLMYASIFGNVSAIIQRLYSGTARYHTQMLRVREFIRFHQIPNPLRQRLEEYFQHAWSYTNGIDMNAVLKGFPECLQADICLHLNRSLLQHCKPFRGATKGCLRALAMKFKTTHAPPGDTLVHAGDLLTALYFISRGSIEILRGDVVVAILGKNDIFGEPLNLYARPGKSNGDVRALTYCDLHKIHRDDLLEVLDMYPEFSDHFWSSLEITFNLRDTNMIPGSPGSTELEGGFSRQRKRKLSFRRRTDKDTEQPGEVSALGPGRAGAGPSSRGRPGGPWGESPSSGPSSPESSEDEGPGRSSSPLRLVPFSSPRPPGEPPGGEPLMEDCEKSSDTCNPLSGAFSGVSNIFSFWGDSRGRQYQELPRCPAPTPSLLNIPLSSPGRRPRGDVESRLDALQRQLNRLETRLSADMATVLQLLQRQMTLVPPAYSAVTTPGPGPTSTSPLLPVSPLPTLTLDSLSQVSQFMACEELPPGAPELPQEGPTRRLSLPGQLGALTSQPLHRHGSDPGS
Assay comment: CEREP 44 safety screen, [3H] Dofetilide binding
Study conditions: probe [3H] Dofetilide
Property label: inhibition at 10 µM (%)
Dear colleague, please return just the value in %, with no unit written.

Qu. Report inhibition at 10 µM for `COc1ncc(-c2cccc(N3CCN(c4cnc(N)nc4N)CC3)c2)cn1` please.
Ans. 60
